assay.overview: Stability of mixtures with excipients
Type: physicochemical
condition.details: Mixture 8: 100% PEG 3350; 50° C./75% r.h., 2 weeks
observable: % DS (drug substance) (% area)

Cc1[nH]c2ccccc2c1CCNCc1ccc(/C=C/C(=O)NO)cc1.Cl [HCl]: 99.5
Cc1[nH]c2ccccc2c1CCNCc1ccc(/C=C/C(=O)NO)cc1.O=C(O)/C=C\C(=O)O [Maleate]: 99.6
Cc1[nH]c2ccccc2c1CCNCc1ccc(/C=C/C(=O)NO)cc1 [Free base]: 98.6
CC(O)C(=O)O.Cc1[nH]c2ccccc2c1CCNCc1ccc(/C=C/C(=O)NO)cc1.O (racemic) [Monohydrate DL-lactate salt]: 99.4
